test system: Giardia lamblia trophozoites; test: In vitro cytotoxicity microassay with XTT viability readout on trophozoites; assay type: cell-based; details: Giardia duodenalis, G. lamblia trophozoites; standard deviation in parenthesis
Label key: MET means IC50 under 20 µM; NOT MET means IC50 of 20 µM or more.

Previously resolved entries follow.
COMPOUND	QUALITATIVE_LABEL
COc1ccc(/C=C2/CC3(C(=O)N[C@@H](C)c4ccccc4)c4ccccc4CN3C2=O)cc1OC (some centres unmarked) [EHV-110-174]	MET
CCS(=O)(=O)CCn1c([N+](=O)[O-])cnc1C [Tinidazole, reference compound]	MET
Cc1ncc([N+](=O)[O-])n1CCO [Metronidazole, reference compound]	MET

// switching to the query compound
Problem: Bench note: check whether COc1ccc(/C=C2/CC3(C(=O)NC4CCCCC4)c4ccccc4CN3C2=O)cc1OC (centres unmarked) [EHV-110-154] shows IC50 below 20 µM
Solution: NOT MET

---

system: Giardia lamblia trophozoites; test: In vitro cytotoxicity microassay with XTT viability readout on trophozoites; assay type: cell-based; settings: G. lamblia trophozoites; standard deviation in parenthesis
MEASURED_ATTRIBUTE: IC50 (µM)
Provide only the numeric value, understood in µM.

Lookup result for COc1ccc(/C=C2/CC3(C(=O)N[C@@H](C)c4ccccc4)c4ccccc4CN3C2=O)cc1OC (stereo partly shown) ; measured IC50: 10.9
